measured-on: human TRPV4 (hTRPV4/CHO cells) (Homo sapiens, UniProt Q9HBA0)
Construct: expressed in transfected cells; host or cells: CHO-K1
Sequence (Q9HBA0 whole entry): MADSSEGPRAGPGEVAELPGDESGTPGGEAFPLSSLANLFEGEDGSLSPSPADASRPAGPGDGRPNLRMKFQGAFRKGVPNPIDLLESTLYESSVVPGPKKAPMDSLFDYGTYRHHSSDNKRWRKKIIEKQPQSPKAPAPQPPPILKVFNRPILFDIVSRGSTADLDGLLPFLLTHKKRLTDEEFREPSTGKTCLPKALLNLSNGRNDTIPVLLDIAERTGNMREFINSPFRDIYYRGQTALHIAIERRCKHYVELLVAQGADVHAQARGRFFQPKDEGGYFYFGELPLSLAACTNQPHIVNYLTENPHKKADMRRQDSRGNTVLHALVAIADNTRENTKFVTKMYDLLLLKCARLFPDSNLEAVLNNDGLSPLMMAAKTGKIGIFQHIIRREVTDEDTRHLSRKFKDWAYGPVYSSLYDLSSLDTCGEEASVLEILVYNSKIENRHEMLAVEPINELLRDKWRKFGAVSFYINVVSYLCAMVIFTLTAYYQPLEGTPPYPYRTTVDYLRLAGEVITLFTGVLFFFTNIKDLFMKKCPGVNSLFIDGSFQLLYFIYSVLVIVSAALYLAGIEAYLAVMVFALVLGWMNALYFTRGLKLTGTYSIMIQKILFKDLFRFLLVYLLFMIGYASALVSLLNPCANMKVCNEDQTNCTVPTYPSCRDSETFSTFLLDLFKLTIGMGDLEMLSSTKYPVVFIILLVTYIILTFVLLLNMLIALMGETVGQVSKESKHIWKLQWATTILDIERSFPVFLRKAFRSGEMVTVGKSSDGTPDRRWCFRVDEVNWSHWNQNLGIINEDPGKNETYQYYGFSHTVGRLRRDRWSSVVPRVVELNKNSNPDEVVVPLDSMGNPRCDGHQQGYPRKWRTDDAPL
experiment: Test Example 1: TRPV4 inhibitory activity (IC50 value), 4α-PDD stimulation, Fluo4 calcium fluorescence (FLIPR TETRA)
Format: cell-based
setup-conditions: Test Example 1, 4α-PDD stimulation, read-out: Test 1 IC50
pIC50: −log10 of the molar value.
pIC50 values for the compounds below.

Look over these answered cases.
{"columns": ["compound", "pIC50"],
 "data": [
  ["CNC(=O)NCc1nc(CO)sc1-c1csc(NC(=O)Cc2ccc(S(=O)(=O)C(F)(F)F)cc2)n1", "> 7.00"],
  ["Cc1nc(C)c(-c2nc(NC(=O)Cc3c(F)cccc3F)sc2CO)s1", "5.10 to 6.00"]
]}

Task item: Dear colleague, I am looking for the recorded pIC50 of the following compound: Cc1nc(C)c(-c2csc(NC(=O)Cn3cc(-c4cccc(Cl)c4)cn3)n2)s1
Reply: > 7.00

Task item: Param item = Cc1nc(CO)oc1-c1csc(NC(=O)Cc2ccc(S(=O)(=O)C(F)(F)F)cc2)n1 ; retrieve measured pIC50.
Reply: 6.00 to 7.00

* * *

Reported values of IC50 for individual entries
measured-on: human TRPV4 (hTRPV4/CHO cells) (Homo sapiens)
Construct: expressed in transfected cells; host or cells: CHO-K1
experiment: Test Example 1: TRPV4 inhibitory activity (IC50 value), 4α-PDD stimulation, Fluo4 calcium fluorescence (FLIPR TETRA)
Format: cell-based
setup-conditions: Test Example 1, 4α-PDD stimulation, read-out: Test 1 IC50

{"columns": ["compound", "measured-result"],
 "data": [
  ["Cc1nc(C)c(-c2csc(NC(=O)C(O)c3c(F)cccc3F)n2)s1 (centres unmarked) [Compound I-103]", "1 to 8 µM"],
  ["O=C(Cc1ccc(S(=O)(=O)C(F)(F)F)cc1)Nc1nc(-c2sc(CO)nc2CO)cs1 [Compound I-174]", "< 0.1 µM"],
  ["Cc1nc(C)c(-c2csc(NC(=O)Cn3cc(-c4ccc(N(C)C)cc4)nn3)n2)s1 [Compound I-427]", "0.1 to 1 µM"],
  ["O=C(Nc1nc(-c2sc(CO)nc2CO)cs1)C1CCC(C(F)(F)F)CC1 (centres unmarked) [Compound I-254]", "< 0.1 µM"],
  ["Cc1nc(COC(N)=O)c(-c2csc(NC(=O)Cc3ccc(S(=O)(=O)C(F)(F)F)cc3)n2)s1 [Compound I-468]", "< 0.1 µM"]
]}

Task item: Could you tell me which IC50 is on file for Cc1nc(C(C)O)c(-c2csc(NC(=O)Cc3c(F)cccc3F)n2)s1 (centres unmarked) [Compound I-130] ?
Reply: 0.1 to 1 µM

Task item: Reported IC50, compound Cc1nc(C(C)O)sc1-c1csc(NC(=O)[C@H]2C[C@H](F)C2)n1 (mixture of isomers) [Compound I-298] : ____
Reply: 1 to 8 µM

Task item: Using the record for Cc1nc(C)c(-c2csc(NC(=O)Cc3ccc(S(=O)(=O)Nc4ccccc4)cc3)n2)s1 [Compound I-164] , report its IC50.
Reply: 0.1 to 1 µM

* * *

measured-on: human TRPV4 (hTRPV4/CHO cells) (Homo sapiens)
Construct: expressed in transfected cells; host or cells: CHO-K1
experiment: Test Example 1: TRPV4 inhibitory activity (IC50 value), 4α-PDD stimulation, Fluo4 calcium fluorescence (FLIPR TETRA)
Assay type: cell-based
setup-conditions: Test Example 1, 4α-PDD stimulation, read-out: Test 1 IC50
pIC50: −log10 of the molar value.
Reported values of pIC50 for individual entries

Study these solved cases before continuing.
{"columns": ["molecule", "pIC50"],
 "data": [
  ["Cc1nc(C)c(-c2csc(NC(=O)[C@@H]3C[C@@H](Oc4ccccc4)CN3C(=O)CO)n2)s1 [Compound I-252]", "5.10 to 6.00"],
  ["Cc1ncsc1-c1csc(NC(=O)Cc2c(F)cccc2F)n1 [Compound I-540]", "6.00 to 7.00"],
  ["NC(=O)Cc1nc(CO)sc1-c1csc(NC(=O)Cc2ccc(S(=O)(=O)C(F)(F)F)cc2)n1 [Compound I-358]", "6.00 to 7.00"],
  ["Cc1nc(C)c(-c2csc(NC(=O)C3CC4(C3)CC(F)(F)C4)n2)s1 [Compound I-470]", "> 7.00"],
  ["CC(=O)NCc1nc(CO)sc1-c1csc(NC(=O)Cc2ccc(S(=O)(=O)C(F)(F)F)cc2)n1 [Compound I-382]", "> 7.00"]
]}

// next entry
Task item: Fill in the blank: the reported pIC50 of Cc1nc(C)c(-c2csc(NC(=O)Cc3cccc(I)c3)n2)s1 [Compound I-443] is ____.
Reply: > 7.00

* * *

measured-on: human TRPV4 (hTRPV4/CHO cells) (Homo sapiens, UniProt Q9HBA0)
Construct: expressed in transfected cells; host or cells: CHO-K1
experiment: Test Example 1: TRPV4 inhibitory activity (IC50 value), 4α-PDD stimulation, Fluo4 calcium fluorescence (FLIPR TETRA)
Type: cell-based
setup-conditions: Test Example 1, 4α-PDD stimulation, read-out: Test 1 IC50
pIC50: −log10 of the molar value.
The entries below come with measured pIC50 values attached.

{"columns": ["compound", "pIC50"],
 "data": [
  ["Cc1nc(CS(C)(=O)=O)c(-c2csc(NC(=O)Cc3ccc(S(=O)(=O)C(F)(F)F)cc3)n2)s1", "6.00 to 7.00"]
]}

Task item: Hi! What's the reported pIC50 for O=C(Nc1nc(-c2sc(CO)nc2CO)cs1)[C@H]1C[C@@H](OCc2ccc(C(F)(F)F)cc2)C1 on human TRPV4 (hTRPV4/CHO cells) (Homo sapiens, UniProt Q9HBA0)?
Reply: 6.00 to 7.00

Task item: Recall the recorded pIC50 for O=C(Nc1nc(-c2sc(CO)nc2CO)cs1)C1CCC(C(F)(F)F)CC1 (stereo not shown) [Compound I-253] with human TRPV4 (hTRPV4/CHO cells) (Homo sapiens, UniProt Q9HBA0) and state it.
Reply: 6.00 to 7.00

Task item: Form: Entry = Cc1nc(C)c(-c2csc(NC(=O)[C@@H]3C[C@@H](N4CCC(c5ccccc5)CC4)CN3C(=O)OC(C)(C)C)n2)s1 | System = human TRPV4 (hTRPV4/CHO cells) (Homo sapiens, UniProt Q9HBA0) | pIC50 = ____
Reply: > 7.00

* * *

measured-on: human TRPV4 (hTRPV4/CHO cells) (Homo sapiens, UniProt Q9HBA0)
Construct: expressed in transfected cells; host or cells: CHO-K1
experiment: Test Example 1: TRPV4 inhibitory activity (IC50 value), 4α-PDD stimulation, Fluo4 calcium fluorescence (FLIPR TETRA)
Assay type: cell-based
setup-conditions: Test Example 1, 4α-PDD stimulation, read-out: Test 1 IC50
measured-metric: IC50

{"columns": ["molecule", "measured-on", "IC50"],
 "data": [
  ["O=C(Nc1nc(-c2sc(CO)nc2CO)cs1)[C@H]1C[C@@H](OCc2ccccc2C(F)(F)F)C1", "human TRPV4 (hTRPV4/CHO cells) (Homo sapiens, UniProt Q9HBA0)", "100 to 1000 nM"],
  ["Cc1nc(C)c(-c2csc(NC(=O)C3CN(Cc4cccc(C(F)(F)F)c4)C3)n2)s1", "human TRPV4 (hTRPV4/CHO cells) (Homo sapiens, UniProt Q9HBA0)", "< 100 nM"],
  ["Cc1nc(C)c(-c2csc(NC(=O)Cn3cc(Cl)cn3)n2)s1 [Compound I-50]", "human TRPV4 (hTRPV4/CHO cells) (Homo sapiens, UniProt Q9HBA0)", "100 to 1000 nM"],
  ["Cc1nc(CO)sc1-c1csc(NC(=O)[C@@H]2C[C@@H](c3ccccc3)CN2C(=O)OCC(F)(F)F)n1", "human TRPV4 (hTRPV4/CHO cells) (Homo sapiens, UniProt Q9HBA0)", "< 100 nM"],
  ["Cc1nc(CO)oc1-c1csc(NC(=O)Cn2cc(C(F)(F)F)cn2)n1", "human TRPV4 (hTRPV4/CHO cells) (Homo sapiens, UniProt Q9HBA0)", "1000 to 8000 nM"]
]}

Task item: Form field: IC50 recorded for Cc1nc(C)c(-c2csc(NC(=O)Cn3cc(-c4ccc(Cl)cc4)nn3)n2)s1 with human TRPV4 (hTRPV4/CHO cells) (Homo sapiens, UniProt Q9HBA0) (enter value)
Reply: < 100 nM

Task item: Please provide the recorded IC50 for CNC(=N)c1nc(C)c(-c2csc(NC(=O)Cc3ccc(S(=O)(=O)C(F)(F)F)cc3)n2)s1 , tested on human TRPV4 (hTRPV4/CHO cells) (Homo sapiens, UniProt Q9HBA0).
Reply: 100 to 1000 nM

* * *

measured-on: human TRPV4 (hTRPV4/CHO cells) (Homo sapiens, UniProt Q9HBA0)
Construct: expressed in transfected cells; host or cells: CHO-K1
experiment: Test Example 1: TRPV4 inhibitory activity (IC50 value), 4α-PDD stimulation, Fluo4 calcium fluorescence (FLIPR TETRA)
Assay type: cell-based
setup-conditions: Test Example 1, 4α-PDD stimulation, read-out: Test 1 IC50
pIC50: −log10 of the molar value.
measured-metric: pIC50

As a guide, the following entries are already answered.
{"columns": ["compound", "measured-metric", "measured-result"],
 "data": [
  ["Cc1nc(C)c(-c2csc(NC(=O)Cn3cc(-c4ccccc4)nn3)n2)s1 [Compound I-191]", "pIC50", "> 7.00"],
  ["Cc1nc(CNC(N)=O)sc1-c1csc(NC(=O)Cc2ccc(S(=O)(=O)C(F)(F)F)cc2)n1 [Compound I-398]", "pIC50", "5.10 to 6.00"],
  ["Cc1ncc(-c2csc(NC(=O)Cc3ccc(Br)cc3)n2)s1 [Compound I-14]", "pIC50", "> 7.00"]
]}

Task item: # lookup: pIC50 of Cc1nc(CO)sc1-c1csc(NC(=O)CN2CCC(c3ccccc3)CC2)n1 [Compound I-171]
Reply: 6.00 to 7.00

Task item: pIC50 lookup needed for O=C(Cc1ccc(S(=O)(=O)CC(F)(F)F)cc1)Nc1nc(-c2cccs2)cs1 [II-6] , thanks.
Reply: 6.00 to 7.00

Each recorded value in this set is attributed to patent US20170066759A1.
